Data provenance: paper PMC8809517

ASSAY_TARGET: T1, GFP-9S library array, motif 4 ND N98A;D124C (synthetic construct, N98A;D124C)
T1 chain: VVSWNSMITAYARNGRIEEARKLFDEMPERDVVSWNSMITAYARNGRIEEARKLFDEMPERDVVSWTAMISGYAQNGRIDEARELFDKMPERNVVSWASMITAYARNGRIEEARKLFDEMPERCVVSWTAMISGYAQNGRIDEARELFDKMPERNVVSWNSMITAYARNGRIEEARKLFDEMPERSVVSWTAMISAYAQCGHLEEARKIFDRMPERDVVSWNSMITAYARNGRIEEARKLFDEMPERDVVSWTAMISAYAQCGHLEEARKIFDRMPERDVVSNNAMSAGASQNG
ASSAY_EXPLANATION: high-throughput RNA pulldown from lysate on Ni-NTA beads; HRP: 50 mM Tris pH 8, 150 mM NaCl, 1 mM beta-mercaptoethanol, 50 ug/ml BSA, 3 ug/ml yeast RNA, 0.5% heparin; ITC and FP: Tris pH 8, 200 mM KCl, 5% glycerol; MST: 50 mM Tris pH 8, 200 mM NaCl, 1 mM DTT, BSA, heparin, 0.05% Tween 20
MEASUREMENT_SETUP: tags: N-terminal His-eGFP; label: 5' IRDye 800CW
# pKd values compiled below
Quick note: pKd values are minus log10 of concentrations in mol/L.

For this binder ( AUUAUACGUGA (ssRNA) [IR-rpoA-U] ), measured pKd is 7.04

Now look at this one.
So for AUUAAACGUGA (ssRNA) [IR-rpoA-A] , the logged pKd turned out to be 6.79
